Let's look at some molecules and their measured INH.
target: Cytochrome P450 3A4 (Homo sapiens, UniProt P08684); experiment: Inhibition of CYP3A4 (unknown origin); format: ADME
Sequence (P08684 whole entry): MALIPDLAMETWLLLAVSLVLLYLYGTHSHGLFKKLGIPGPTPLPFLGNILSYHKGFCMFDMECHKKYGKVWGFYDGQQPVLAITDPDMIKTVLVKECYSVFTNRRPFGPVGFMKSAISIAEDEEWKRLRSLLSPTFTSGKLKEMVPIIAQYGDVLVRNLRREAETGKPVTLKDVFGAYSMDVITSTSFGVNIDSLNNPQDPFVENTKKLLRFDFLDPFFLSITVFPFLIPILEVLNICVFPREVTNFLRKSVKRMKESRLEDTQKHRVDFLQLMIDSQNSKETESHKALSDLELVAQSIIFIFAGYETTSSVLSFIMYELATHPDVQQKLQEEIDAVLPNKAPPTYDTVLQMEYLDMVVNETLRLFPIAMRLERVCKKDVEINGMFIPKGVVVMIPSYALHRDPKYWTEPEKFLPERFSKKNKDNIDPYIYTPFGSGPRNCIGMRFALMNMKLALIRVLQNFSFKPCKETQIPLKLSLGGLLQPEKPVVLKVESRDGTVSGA
// return numeric value only (unit: µM, not printed)

Would you please look over these solved cases?
- smilesInput: "O=C(c1ccc(C(F)(F)F)cc1)N1CCOc2ccc(-c3ccc4nc[nH]c4c3)cc2C1"
  INH / µM: 1.9
- smilesInput: "CCc1c(C(=O)N2CCOc3ccc(-c4ccc5nc[nH]c5c4)cc3C2)ccc(S(C)(=O)=O)c1F"
  INH / µM: 2.6
- smilesInput: "CNS(=O)(=O)c1ccc(C(=O)N2CCOc3ccc(-c4ccc5nc[nH]c5c4)cc3C2)cc1"
  INH / µM: 2.8
- smilesInput: "CCc1cc(S(C)(=O)=O)ccc1C(=O)N1CCOc2ccc(-c3ccc4nc[nH]c4c3)cc2C1"
  INH / µM: 2
- smilesInput: "CS(=O)(=O)c1ccc(C(=O)N2CCOc3ccc(-c4ccc5nc[nH]c5c4)cc3C2)cc1"
  INH / µM: 3.8
- smilesInput: "CS(=O)(=O)c1ccc(C(=O)N2CCOc3ccc(-c4ccc5nc[nH]c5c4)cc3C2)c(Cl)c1"
  INH / µM: 3.5

Report INH for CCS(=O)(=O)c1ccc(C(=O)N2CCOc3ccc(-c4ccc5nc[nH]c5c4)cc3C2)cc1 please. 2.2

Could you share which INH value was measured for Cc1cc(S(C)(=O)=O)ccc1C(=O)N1CCOc2ccc(-c3ccc4nc[nH]c4c3)cc2C1 ? 4.1

###

assay: Half life in athymic nude mouse at 10 mg/kg, iv; format: ADME, organism-based; parameters: dose 10 mg/kg, route intravenous; details: in vivo
endpointName: half-life (min)
Enter your answer as a number in min; do not include the unit.

Entry Cc1c(C(=O)N2CCOc3ccc(-c4ccc(N)nc4)cc3C2)ccc(S(C)(=O)=O)c1F has what half-life? 81

###

target: Cytochrome P450 2C9 (Homo sapiens, UniProt P11712); test: Inhibition of CYP2C9 (unknown origin); type: ADME
Sequence (P11712 whole entry): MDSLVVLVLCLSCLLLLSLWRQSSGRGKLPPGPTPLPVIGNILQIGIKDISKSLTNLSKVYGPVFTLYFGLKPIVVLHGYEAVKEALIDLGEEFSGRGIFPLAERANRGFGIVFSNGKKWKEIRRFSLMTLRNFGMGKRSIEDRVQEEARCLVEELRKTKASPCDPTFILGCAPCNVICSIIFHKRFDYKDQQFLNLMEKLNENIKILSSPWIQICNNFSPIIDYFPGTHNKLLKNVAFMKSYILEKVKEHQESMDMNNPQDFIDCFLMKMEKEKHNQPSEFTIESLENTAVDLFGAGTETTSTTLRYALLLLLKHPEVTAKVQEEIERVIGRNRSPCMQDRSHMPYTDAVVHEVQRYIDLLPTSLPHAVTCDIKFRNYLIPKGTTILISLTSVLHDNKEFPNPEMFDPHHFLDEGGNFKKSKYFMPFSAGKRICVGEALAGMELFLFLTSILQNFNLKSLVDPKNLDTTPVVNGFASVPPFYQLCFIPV
The following compounds are listed with their measured INH values.
Dear colleague, please return just the value in µM, with no unit written.

Below: 4 compounds and their reported INH.
- smilesInput: "CS(=O)(=O)c1ccc(C(=O)N2CCOc3ccc(-c4ccc5nc[nH]c5c4)cc3C2)cc1"
  INH / µM: 3
- smilesInput: "CS(=O)(=O)c1ccc(C(=O)N2CCOc3ccc(-c4ccc(N)nc4)cc3C2)cc1"
  INH / µM: 18.8
- smilesInput: "O=C(c1ccc(C(F)(F)F)cc1)N1CCOc2ccc(-c3ccc4nc[nH]c4c3)cc2C1"
  INH / µM: 1.6
- smilesInput: "CS(=O)(=O)c1ccc(C(=O)N2CCOc3ccc(-c4ccc5nc[nH]c5c4)cc3C2)c(Br)c1"
  INH / µM: 4.2

// next item, INH requested
Write down the reported INH of Cc1c(C(=O)N2CCOc3ccc(-c4ccc(N)nc4)cc3C2)ccc(S(C)(=O)=O)c1F , test system: Cytochrome P450 2C9 (Homo sapiens, UniProt P11712). 10.6

###

experiment: Plasma concentration in mouse at 100 mg/kg, po after 1 hr; assay type: ADME, organism-based; set-up: dose 100 mg/kg, route oral
endpointName: concentration at 1 h (µM)
Respond with the bare value in µM.

Sample answers from the record:
- smilesInput: "Cc1c(C(=O)N2CCOc3ccc(-c4ccc(N)nc4)cc3C2)ccc(S(C)(=O)=O)c1F"
  endpointName: "concentration at 1 h"
  obsValue: 22
- smilesInput: "O=C(c1ccc(C(=O)C(F)(F)F)cc1)N1CCOc2ccc(-c3ccc4nc[nH]c4c3)cc2C1"
  endpointName: "concentration at 1 h"
  obsValue: 1.5
- smilesInput: "CS(=O)(=O)c1ccc(C(=O)N2CCOc3ccc(-c4ccc5nc[nH]c5c4)cc3C2)cc1"
  endpointName: "concentration at 1 h"
  obsValue: 7.8

Query compound follows.
If you can, please state the reported concentration at 1 h value of Cc1nc2ccc(-c3ccc4c(c3)CN(C(=O)c3ccc(C(=O)C(F)(F)F)cc3)CCO4)cc2[nH]1 . 1

###

test: Drug uptake in tumor of athymic mouse xenografted with human PC3 cells at 100 mg/kg, po after 1 hr; format: ADME, organism-based, Neoplasm, PC-3; set-up: dose 100 mg/kg, route oral; conditions: read-out: Drug uptake
endpointName: concentration at 1 h (µM)
The response must be a number in µM with no trailing unit.

Can you share its concentration at 1 h? I mean this molecule: Cc1c(C(=O)N2CCOc3ccc(-c4ccc(N)nc4)cc3C2)ccc(S(C)(=O)=O)c1F 28.8

###

assay: Half life in Beagle dog at 3 mg/kg, iv; type: ADME, organism-based, Canis lupus familiaris; set-up: dose 3 mg/kg, route intravenous; details: in vivo
endpointName: half-life (min)
I only need the number, in min, no unit after it.

May I ask what half-life has been recorded for Cc1c(C(=O)N2CCOc3ccc(-c4ccc(N)nc4)cc3C2)ccc(S(C)(=O)=O)c1F ? 367

###

test: Apparent permeability across MDCK cells; type: ADME, cell-based, Canis lupus familiaris; settings: dog
# Papp listing for each entry below
Express the result in nm/s but write the number alone.

Take a look at these entries with their results.
- smilesInput: "CNS(=O)(=O)c1ccc(C(=O)N2CCOc3ccc(-c4ccc5nc[nH]c5c4)cc3C2)cc1"
  endpointName: "Papp"
  obsValue: 42
- smilesInput: "O=C(c1ccc(C(=O)C(F)(F)F)cc1)N1CCOc2ccc(-c3cnc4ccccc4c3)cc2C1"
  endpointName: "Papp"
  obsValue: 16.9
- smilesInput: "O=C(c1ccc(C(=O)C(F)(F)F)cc1)N1CCOc2ccc(-c3ccc4nc[nH]c4c3)cc2C1"
  endpointName: "Papp"
  obsValue: 9.8
- smilesInput: "NS(=O)(=O)c1ccc(C(=O)N2CCOc3ccc(-c4ccc5nc[nH]c5c4)cc3C2)cc1"
  endpointName: "Papp"
  obsValue: 42

Now take the following compound into account.
If you can, please state the reported Papp value of Cc1c(C(=O)N2CCOc3ccc(-c4ccc(N)nc4)cc3C2)ccc(S(C)(=O)=O)c1F . 151

###

biological target: Phosphatidylinositol 4,5-bisphosphate 3-kinase catalytic subunit beta isoform (Homo sapiens); assay: Inhibition of PI3Kbeta (unknown origin)
Sequence (P42338 whole entry, canonical isoform): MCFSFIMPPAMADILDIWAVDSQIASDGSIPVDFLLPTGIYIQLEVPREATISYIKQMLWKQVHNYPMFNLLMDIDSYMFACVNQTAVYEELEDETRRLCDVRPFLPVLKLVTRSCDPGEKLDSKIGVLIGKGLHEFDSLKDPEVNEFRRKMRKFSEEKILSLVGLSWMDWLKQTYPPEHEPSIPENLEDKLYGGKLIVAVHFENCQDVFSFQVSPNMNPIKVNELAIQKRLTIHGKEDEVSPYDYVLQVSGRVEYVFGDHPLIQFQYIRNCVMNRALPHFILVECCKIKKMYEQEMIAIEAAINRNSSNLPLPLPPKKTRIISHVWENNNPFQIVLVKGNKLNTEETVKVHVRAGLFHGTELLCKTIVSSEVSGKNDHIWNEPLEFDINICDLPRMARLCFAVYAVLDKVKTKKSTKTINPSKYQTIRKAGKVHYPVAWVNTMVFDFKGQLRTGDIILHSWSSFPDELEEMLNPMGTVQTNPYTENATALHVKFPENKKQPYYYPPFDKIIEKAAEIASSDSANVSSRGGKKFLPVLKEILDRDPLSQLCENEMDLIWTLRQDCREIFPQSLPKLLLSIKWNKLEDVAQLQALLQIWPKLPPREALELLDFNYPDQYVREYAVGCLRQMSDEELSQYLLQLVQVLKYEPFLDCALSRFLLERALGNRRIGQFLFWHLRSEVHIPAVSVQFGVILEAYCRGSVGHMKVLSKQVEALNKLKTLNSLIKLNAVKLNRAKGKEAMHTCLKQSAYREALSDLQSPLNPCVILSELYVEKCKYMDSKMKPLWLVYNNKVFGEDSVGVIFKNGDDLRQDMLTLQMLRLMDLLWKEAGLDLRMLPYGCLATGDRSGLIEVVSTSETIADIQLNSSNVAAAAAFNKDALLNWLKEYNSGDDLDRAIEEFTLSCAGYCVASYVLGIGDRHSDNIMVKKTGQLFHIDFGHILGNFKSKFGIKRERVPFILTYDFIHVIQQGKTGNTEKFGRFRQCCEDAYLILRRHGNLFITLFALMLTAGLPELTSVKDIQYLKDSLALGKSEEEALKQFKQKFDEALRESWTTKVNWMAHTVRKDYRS
pIC50: −log10 of the molar value.
endpointName: pIC50

What does the record list as pIC50 for Cc1c(C(=O)N2CCOc3ccc(-c4ccc(N)nc4)cc3C2)ccc(S(C)(=O)=O)c1F ? < 5.30

###

test: AUC (0 to infinity) in cynomolgus monkey at 3 mg/kg, iv; format: ADME, organism-based, Macaca fascicularis; set-up: time infinity, dose 3 mg/kg, route intravenous; conditions: plasma
endpointName: AUC(0-inf) (µM·h)
Give the value, in units of µM·h, as a plain number.

Would you mind telling me what AUC(0-inf) value was observed for Cc1c(C(=O)N2CCOc3ccc(-c4ccc(N)nc4)cc3C2)ccc(S(C)(=O)=O)c1F ? 1.31

###

test: Cmax in cynomolgus monkey at 3 mg/kg, po; format: ADME, organism-based, Macaca fascicularis; design: dose 3 mg/kg, route oral; conditions: in vivo
endpointName: Cmax (nM)
Express your answer in nM, writing the number without its unit.

Fill in the blank: the reported Cmax of Cc1c(C(=O)N2CCOc3ccc(-c4ccc(N)nc4)cc3C2)ccc(S(C)(=O)=O)c1F is ____. 250

###

target: Cell division cycle 7-related protein kinase (Homo sapiens, UniProt O00311)
Sequence (O00311 whole entry): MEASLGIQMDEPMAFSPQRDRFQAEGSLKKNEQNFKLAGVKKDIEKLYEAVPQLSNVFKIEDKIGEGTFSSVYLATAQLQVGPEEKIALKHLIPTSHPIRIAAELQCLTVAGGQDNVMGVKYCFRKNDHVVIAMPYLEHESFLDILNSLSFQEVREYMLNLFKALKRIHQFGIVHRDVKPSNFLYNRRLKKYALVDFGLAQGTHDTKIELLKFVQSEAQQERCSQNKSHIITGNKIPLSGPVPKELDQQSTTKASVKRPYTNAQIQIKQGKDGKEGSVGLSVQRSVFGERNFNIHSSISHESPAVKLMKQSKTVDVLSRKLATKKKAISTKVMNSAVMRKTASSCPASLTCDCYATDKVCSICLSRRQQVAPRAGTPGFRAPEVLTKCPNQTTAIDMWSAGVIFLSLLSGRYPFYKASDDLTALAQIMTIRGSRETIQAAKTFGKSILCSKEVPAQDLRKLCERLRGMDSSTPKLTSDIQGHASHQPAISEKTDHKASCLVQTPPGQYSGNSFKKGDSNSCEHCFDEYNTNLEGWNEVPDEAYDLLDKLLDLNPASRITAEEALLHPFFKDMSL
endpointName: IC50

Value lookup for IC50; key = Cc1c(C(=O)N2CCOc3ccc(-c4ccc(N)nc4)cc3C2)ccc(S(C)(=O)=O)c1F > 3.5 µM

###

assay: Cmax in athymic nude mouse at 10 mg/kg, iv; assay type: ADME, organism-based; parameters: dose 10 mg/kg, route intravenous; details: in vivo
endpointName: Cmax (µM)
Field format: number, assumed µM, no unit text.

If you can, please state the reported Cmax value of Cc1c(C(=O)N2CCOc3ccc(-c4ccc(N)nc4)cc3C2)ccc(S(C)(=O)=O)c1F . 9.14

###

Listed here: items and their measured concentration at 4 h.
assay: Plasma concentration in mouse at 100 mg/kg, po after 4 hrs; type: ADME, organism-based; parameters: dose 100 mg/kg, route oral

- smilesInput: "CS(=O)(=O)c1ccc(C(=O)N2CCOc3ccc(-c4ccc5nc[nH]c5c4)cc3C2)cc1"
  obsValue: "1000 nM"
- smilesInput: "Cc1nc2ccc(-c3ccc4c(c3)CN(C(=O)c3ccc(C(=O)C(F)(F)F)cc3)CCO4)cc2[nH]1"
  obsValue: "200 nM"
- smilesInput: "Cc1c(C(=O)N2CCOc3ccc(-c4ccc(N)nc4)cc3C2)ccc(S(C)(=O)=O)c1F"
  obsValue: "17800 nM"

Please examine the following record next.
Requested field: concentration at 4 h. Item: O=C(c1ccc(C(=O)C(F)(F)F)cc1)N1CCOc2ccc(-c3ccc4nc[nH]c4c3)cc2C1 400 nM

Numbers sourced from ChEMBL document CHEMBL2331117.
